tested_target: Notch1 (Homo sapiens, UniProt P46531)
Construct: pLV[Tet]-Puro-TRE3G>Notch1-ICD
Sequence (P46531 1754-2555 limits assumed): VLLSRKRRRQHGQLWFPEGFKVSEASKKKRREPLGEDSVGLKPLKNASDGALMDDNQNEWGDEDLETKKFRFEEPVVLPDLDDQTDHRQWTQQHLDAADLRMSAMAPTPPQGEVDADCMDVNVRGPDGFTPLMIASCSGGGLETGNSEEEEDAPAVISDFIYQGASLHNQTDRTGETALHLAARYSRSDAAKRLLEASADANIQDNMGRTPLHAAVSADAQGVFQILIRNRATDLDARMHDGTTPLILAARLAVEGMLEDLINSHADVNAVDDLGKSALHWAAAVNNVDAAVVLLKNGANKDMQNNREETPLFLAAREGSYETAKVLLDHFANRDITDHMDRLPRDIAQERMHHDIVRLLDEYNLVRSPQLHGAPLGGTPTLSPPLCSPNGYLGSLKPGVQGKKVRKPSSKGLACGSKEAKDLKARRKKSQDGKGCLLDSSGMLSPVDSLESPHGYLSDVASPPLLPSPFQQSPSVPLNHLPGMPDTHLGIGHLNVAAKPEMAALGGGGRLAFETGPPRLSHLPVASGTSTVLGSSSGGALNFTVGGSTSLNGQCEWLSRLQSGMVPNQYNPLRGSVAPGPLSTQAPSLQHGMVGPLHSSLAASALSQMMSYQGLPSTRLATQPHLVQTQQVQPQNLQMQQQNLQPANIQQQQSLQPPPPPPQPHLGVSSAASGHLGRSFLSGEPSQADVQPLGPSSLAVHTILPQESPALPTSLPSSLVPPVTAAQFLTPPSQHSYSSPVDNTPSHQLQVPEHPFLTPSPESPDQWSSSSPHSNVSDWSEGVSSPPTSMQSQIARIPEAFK
protocol_text: Notch1 Reporter Assay (CSL-responsive luciferase, doxycycline-induced Notch-ICD in 293A cells)
study_conditions: 25 ng/mL Dox, 24 h, luciferase normalized to cell viability
Structures can show the parent of a compound that is named as a salt.
readout: IC50 (µM)
Write the value in µM as a bare number.

I'm curious: which IC50 was measured for COc1ccccc1NC(=O)Cn1c(=O)n(C)c2c(-c3cc(F)c(OCc4nnc[nH]4)c(OC)c3)cc(C(F)(F)F)cc21 [SSTN-493, hydrochloride] tested on Notch1 (Homo sapiens, UniProt P46531)?
8.5

Also COc1cc(-c2cc(C(F)(F)F)cc3c2n(C)c(=O)n3CC(=O)Nc2cccc(Cl)c2)cc(F)c1OCc1nnc[nH]1 [SSTN-490, hydrochloride] , if possible.
5.5

Also COc1cc(-c2cc(C(F)(F)F)cc3c2n(C)c(=O)n3CC(=O)Nc2ccccc2Cl)cc(F)c1OCc1nnc[nH]1 [SSTN-491, hydrochloride] , if possible.
11.1

Also COc1cc(-c2cc(C(F)(F)F)cc3c2n(C2CC2)c(=O)n3CC(=O)N(C)c2ccc(F)cc2)cc(F)c1OCc1nnc[nH]1 [compound 464, hydrochloride] , if possible.
1.7

Also COc1cc(-c2cc(C(F)(F)F)cc3c2n(C)c(=O)n3CC(=O)N(C)c2ccc(C(F)(F)F)cc2)cc(F)c1OCc1nnc[nH]1 [compound 439, hydrochloride] , if possible.
3.5

Also COc1cc(-c2cc(C(F)(F)F)cc3c2n(C)c(=O)n3CC(=O)Nc2ccc(F)nc2)cc(F)c1OCc1nnc[nH]1 , if possible.
10.3

----------
tested_target: Notch1 (Homo sapiens)
Construct: pLV[Tet]-Puro-TRE3G>Notch1-ICD
protocol_text: Notch1 Reporter Assay (CSL-responsive luciferase, doxycycline-induced Notch-ICD in 293A cells)
study_conditions: 25 ng/mL Dox, 24 h, luciferase normalized to cell viability
Where a name gives a salt, the structure may show the parent alone.
readout: IC50 (µM)
Write the value in µM as a bare number.

I'm curious: which IC50 was measured for COc1cc(-c2cc(C(F)(F)F)cc3c2n(C)c(=O)n3CC(=O)Nc2ccc(F)cc2)c(F)cc1OCc1nnc[nH]1 tested on Notch1 (Homo sapiens)?
7.4

Also COc1cc(-c2cc(C(F)(F)F)cc3c2n(C)c(=O)n3CC(=O)N(c2ccc(F)cc2)C2CC2)cc(F)c1OCc1nnc[nH]1 , if possible.
4.7

Also COc1cc(-c2cc(C(F)(F)F)cc3c2n(C)c(=O)n3CC(=O)Nc2cccc(CN3CCOCC3)c2)cc(F)c1OCc1nnc[nH]1 , if possible.
12.5

Also COc1cc(-c2cc(C(F)(F)F)cc3c2n(C)c(=O)n3CC(=O)N(C)c2cccc(Cl)c2)cc(F)c1OCc1nnc[nH]1 [compound 448, hydrochloride] , if possible.
2.4

Also COc1cc(-c2cc(C(F)(F)F)cc3c2n(C)c(=O)n3CC(=O)Nc2ccc(F)cc2)ccc1OCc1nnc[nH]1 [SSTN-598, hydrochloride salt] , if possible.
6.4

Also COc1cc(-c2cc(C(F)(F)F)cc3c2n(C)c(=O)n3CC(=O)Nc2cccc(S(C)(=O)=O)c2)cc(F)c1OCc1nnc[nH]1 [SSTN-501, hydrochloride] , if possible.
13

----------
tested_target: Notch1 (Homo sapiens)
Construct: pLV[Tet]-Puro-TRE3G>Notch1-ICD
protocol_text: Notch1 Reporter Assay (CSL-responsive luciferase, doxycycline-induced Notch-ICD in 293A cells)
study_conditions: 25 ng/mL Dox, 24 h, luciferase normalized to cell viability
Counter-ions that a name gives are not always drawn.
Give pIC50 for every item shown.
Reminder that pIC50 is minus the log10 of a molar concentration.

Given COc1cc(-c2cc(C(F)(F)F)cc3c2n(C)c(=O)n3CC(=O)Nc2ccc(OC(F)F)cc2)cc(F)c1OCc1nnc[nH]1 [SSTN-497, hydrochloride] , state its recorded pIC50.
5.16

Also Cn1c(=O)n(CC(=O)N(Cc2nnc[nH]2)c2ccc(F)cc2)c2cc(C(F)(F)F)cc(-c3ccc(OCc4nnc[nH]4)c(F)c3)c21 , if possible.
4.83

Also Cn1c(=O)n(CC(=O)Nc2ccc(F)cc2)c2cc(C(F)(F)F)cc(-c3cc(Cl)c(OCc4nnc[nH]4)c(Cl)c3)c21 , if possible.
4.86

Also COc1cc(-c2cc(C(F)(F)F)cc3c2n(C)c(=O)n3CC(=O)Nc2ccc(Cl)cc2)cc(F)c1OCc1nnc[nH]1 [SSTN-489, hydrochloride] , if possible.
5.10

Also COc1cc(-c2cc(F)cc3c2n(C)c(=O)n3CC(=O)N(C)c2ccc(Cl)cc2)cc(F)c1OCc1nc[nH]n1 [compound 384, hydrochloride] , if possible.
4.85

Also Cn1c(=O)n(CC(=O)Nc2ccc(F)cc2)c2cc(C(F)(F)F)cc(-c3ccc(OCc4nnc[nH]4)c(F)c3)c21 , if possible.
5.09

Also COc1cc(-c2cc(C(F)(F)F)cc3c2n(C)c(=O)n3CC(=O)Nc2cccc(N3CCN(C)CC3)c2)cc(F)c1OCc1nnc[nH]1 , if possible.
4.70

----------
tested_target: Notch1 (Homo sapiens)
Construct: pLV[Tet]-Puro-TRE3G>Notch1-ICD; expressed in transfected cells; host or cells: 293A cells
protocol_text: Notch1 Reporter Assay (CSL-responsive luciferase, doxycycline-induced Notch-ICD in 293A cells)
Format: cell-based
study_conditions: 25 ng/mL Dox, 24 h, luciferase normalized to cell viability
Structures can show the parent of a compound that is named as a salt.
Give pIC50 for every item shown.
Reminder that pIC50 is minus the log10 of a molar concentration.

Given COc1cc(-c2cc(C(F)(F)F)cc3c2n(C)c(=O)n3CC(=O)N2CCN(C)CC2)cc(F)c1OCc1nnc[nH]1 [SSTN-544] , state its recorded pIC50.
4.29

Also COc1cc(-c2cc(C(F)(F)F)cc3c2n(C)c(=O)n3CC(=O)Nc2cccc(C3CC3)c2)cc(F)c1OCc1nnc[nH]1 [SSTN-547] , if possible.
5.23

Also COc1cc(-c2cc(C(F)(F)F)cc3c2n(C)c(=O)n3CC(=O)Nc2cncc(C)c2)cc(F)c1OCc1nnc[nH]1 [SSTN-502, hydrochloride] , if possible.
4.92

Also COc1cc(-c2cc(C(F)(F)F)cc3c2n(C)c(=O)n3CC(=O)N(C)c2ccc(F)cc2F)cc(F)c1OCc1nnc[nH]1 [compound 447, hydrochloride] , if possible.
5.48

Also COc1cc(-c2cc(C(F)(F)F)cc3c2n(C)c(=O)n3CC(=O)Nc2cccc(C#N)c2)cc(F)c1OCc1nnc[nH]1 [SSTN-545] , if possible.
5.24

Also COc1cc(-c2cc(C(F)(F)F)cc3c2n(C)c(=O)n3CC(=O)Nc2cccc(F)c2)cc(F)c1OCc1nnc[nH]1 [SSTN-496, hydrochloride] , if possible.
5.22

Also COc1cc(-c2cc(C(F)(F)F)cc3c2n(C)c(=O)n3CC(=O)Nc2cncc(C(F)(F)F)c2)cc(F)c1OCc1nnc[nH]1 [SSTN-614] , if possible.
5.47

Also COc1cc(-c2cc(C(F)(F)F)cc3c2n(C)c(=O)n3CC(=O)Nc2ccc(S(C)(=O)=O)cc2)cc(F)c1OCc1nnc[nH]1 [SSTN-503, hydrochloride] , if possible.
4.90

Also COc1cc(-c2cc(C(F)(F)F)cc3c2n(C)c(=O)n3CC(=O)N(C)c2ccc(F)cc2)cc(F)c1OCc1nnc[nH]1 [compound 440, hydrochloride] , if possible.
5.51

Also COc1cncc(NC(=O)Cn2c(=O)n(C)c3c(-c4cc(F)c(OCc5nnc[nH]5)c(OC)c4)cc(C(F)(F)F)cc32)c1 [SSTN-611] , if possible.
4.68

Also COc1cc(-c2cc(C(F)(F)F)cc3c2n(C)c(=O)n3CC(=O)Nc2cccc(C(C)(C)C)c2)cc(F)c1OCc1nnc[nH]1 [SSTN-555] , if possible.
5.39

Also COc1cc(-c2cc(C(F)(F)F)cc3c2n(C)c(=O)n3CC(=O)N(c2ccc(F)cc2)C(C)C)cc(F)c1OCc1nnc[nH]1 [SSTN-542] , if possible.
5.42

Also COc1cc(-c2cc(C(F)(F)F)cc3c2n(C)c(=O)n3CC(=O)Nc2ccc(F)cc2F)cc(F)c1OCc1nnc[nH]1 [SSTN-494, hydrochloride] , if possible.
4.92

----------
tested_target: Notch1 (Homo sapiens)
Construct: pLV[Tet]-Puro-TRE3G>Notch1-ICD
protocol_text: Notch1 Reporter Assay (CSL-responsive luciferase, doxycycline-induced Notch-ICD in 293A cells)
study_conditions: 25 ng/mL Dox, 24 h, luciferase normalized to cell viability
Structures can show the parent of a compound that is named as a salt.
readout: IC50 (µM)
Write the value in µM as a bare number.

Given COc1cccc(NC(=O)Cn2c(=O)n(C)c3c(-c4cc(F)c(OCc5nnc[nH]5)c(OC)c4)cc(C(F)(F)F)cc32)c1 [SSTN-492, hydrochloride] , state its recorded IC50.
6.3

Also COc1cc(-c2cc(F)cc3c2n(C)c(=O)n3CC(=O)N(C)c2ccc(F)cc2)cc(F)c1OCc1nnc[nH]1 [compound 425, hydrochloride] , if possible.
33.5

Also COc1cc(-c2cc(Cl)cc3c2n(C)c(=O)n3CC(=O)Nc2ccc(F)cc2)cc(F)c1OCc1nnc[nH]1 , if possible.
10.2

Also COc1cc(-c2cc(OC(F)(F)F)cc3c2n(C)c(=O)n3CC(=O)Nc2ccc(F)cc2)cc(F)c1OCc1nnc[nH]1 [SSTN-600, hydrochloride salt] , if possible.
5.8

Also COc1ccc(NC(=O)Cn2c(=O)n(C)c3c(-c4cc(F)c(OCc5nnc[nH]5)c(OC)c4)cc(C(F)(F)F)cc32)cn1 , if possible.
9.2

Also COc1cc(-c2cc(C(F)(F)F)cc3c2n(C)c(=O)n3CC(=O)Nc2ccn(C)n2)cc(F)c1OCc1nnc[nH]1 [SSTN-509, hydrochloride] , if possible.
16.1
